Attribution: ChEMBL document CHEMBL1201862

test system: SK-MEL-28; test: NCI tumour cell line growth inhibition, 48 h
Active and inactive are the calls of the source. Rule as the data show it: active = GI50 up to about 1.1 µM and inactive = higher.
measurement.kind: GI50

Answered cases to consult:
# molecule, GI50
measured = [
    ("N#Cc1c(N)nc2[nH]nc(N)c2c1-c1ccc(Cl)cc1", "6.95 µM (inactive)"),
    ("NC(=O)C(N)=O", "> 100 µM (inactive)"),
    ("C[n+]1c(-c2ccc(/C=N/NC(=N)N/N=C/c3ccc(-c4cn5cc(Cl)ccc5[n+]4C)cc3)cc2)cn2cc(Cl)ccc21", "> 100 µM (inactive)"),
    ("CCOC(=O)C1S/C(=N\\c2cccc(Cl)c2C)N=C1C (stereo unspecified)", "40 µM (inactive)"),
    ("COc1cc(/C=C/c2ccc(Br)cc2)cc(OC)c1OC", "6.21 µM (inactive)"),
]

Item COc1ccc(C2=NNC(=O)c3ccccc3N2c2nc(-c3cccs3)nc3ccc(Br)cc23)cc1 has what recorded GI50?
> 100 µM (inactive)

// lookup GI50 for CCOC(=O)Cc1nc2nn(Cc3ccccc3)cc2c(=O)[nH]1
> 100 µM (inactive)

# GI50 lookup, item CCC(C)C(=O)OCC(=O)c1ccc(-c2ccccc2)cc1 (stereo unspecified)
72.9 µM (inactive)

What does the data say about its GI50? Entry: O=C(O)C1CC(c2ccccc2)=NN1c1ccccc1 (stereo unspecified)
> 100 µM (inactive)

What value of GI50 has been recorded for this entry: COCCOc1cc(C)cc(/C=C(C)/C=C/C2=C(C)CCCC2(C)C)n1
> 100 µM (inactive)

====

tested on: MCF7; experiment: NCI tumour cell line growth inhibition, 48 h
Active and inactive are the calls of the source. Cut-off read from the data, not from the text of the source: active = GI50 up to about 1.1 µM and inactive = higher. Square brackets hold non-standard residues; d marks the D form. Peptide text beside a SMILES is read from it. pGlu = O=C1CC[C@@H](C(=O)O)N1; Thz = O=C(O)[C@@H]1CSCN1
measurement.kind: GI50

Check out these entries, answers already filled in.
# molecule, GI50
measured = [
    ("CCOC(=O)CO/N=C\\C1=CC(=O)C2CC1C2(C)C (stereo unspecified)", "> 100 µM (inactive)"),
    ("CC1=C[C@H]([C@H]2C=C(C)C(C(N)=O)=CN2Cc2c(Cl)cccc2Cl)N(Cc2c(Cl)cccc2Cl)C=C1C(N)=O", "> 75 µM (inactive)"),
    ("CCOC(=O)c1ccc2nc(NC(=O)COC(=O)CSc3nc(C)cc(C)n3)sc2c1", "35.9 µM (inactive)"),
    ("Cc1c(S(=O)(=O)O)ccc(/N=N/c2c(O)c(C(=O)O)cc3ccccc23)c1Cl", "> 100 µM (inactive)"),
    ("COC(=O)C1=C(C(=O)OC)N(c2ccncc2)C(c2ccco2)=CC1c1ccccc1[N+](=O)[O-] (stereo unspecified)", "1.87 µM (inactive)"),
    ("Cn1c2ccccc2c(=O)c2c(O)cc3c(c21)C=CC1(CCCC1)O3", "> 100 µM (inactive)"),
]

Look at this molecule and give its reported GI50. COc1ccc(C2Oc3c(cccc3-c3c(-c4ccc(O)cc4)oc4cc(O)cc(O)c4c3=O)C(=O)C2O)cc1O (stereo unspecified)
> 100 µM (inactive)

Would you mind telling me what GI50 value was observed for O=C1CC[C@@H](C(=O)N2CSC[C@H]2C(=O)O)N1 [PIDOTIMOD] ([pGlu]-[Thz]-OH) ?
> 100 µM (inactive)

What value of measured GI50 is listed for Cc1ccc2c(c1)C/C(=C\c1ccccc1C(=O)O)C2=O ?
> 100 µM (inactive)

I have this molecule here, O=C1C=CC(=O)c2c(Cl)ccc(O)c21 , and I need its recorded GI50.
13.9 µM (inactive)

Which measured GI50 value corresponds to c1ccc([P+](CCN2Cc3ccccc3C2)(c2ccccc2)c2ccccc2)cc1 ?
3.59 µM (inactive)
